- measured-target: DNA (cytosine-5)-methyltransferase 1 (Homo sapiens, UniProt P26358)
- Sequence (P26358 whole entry): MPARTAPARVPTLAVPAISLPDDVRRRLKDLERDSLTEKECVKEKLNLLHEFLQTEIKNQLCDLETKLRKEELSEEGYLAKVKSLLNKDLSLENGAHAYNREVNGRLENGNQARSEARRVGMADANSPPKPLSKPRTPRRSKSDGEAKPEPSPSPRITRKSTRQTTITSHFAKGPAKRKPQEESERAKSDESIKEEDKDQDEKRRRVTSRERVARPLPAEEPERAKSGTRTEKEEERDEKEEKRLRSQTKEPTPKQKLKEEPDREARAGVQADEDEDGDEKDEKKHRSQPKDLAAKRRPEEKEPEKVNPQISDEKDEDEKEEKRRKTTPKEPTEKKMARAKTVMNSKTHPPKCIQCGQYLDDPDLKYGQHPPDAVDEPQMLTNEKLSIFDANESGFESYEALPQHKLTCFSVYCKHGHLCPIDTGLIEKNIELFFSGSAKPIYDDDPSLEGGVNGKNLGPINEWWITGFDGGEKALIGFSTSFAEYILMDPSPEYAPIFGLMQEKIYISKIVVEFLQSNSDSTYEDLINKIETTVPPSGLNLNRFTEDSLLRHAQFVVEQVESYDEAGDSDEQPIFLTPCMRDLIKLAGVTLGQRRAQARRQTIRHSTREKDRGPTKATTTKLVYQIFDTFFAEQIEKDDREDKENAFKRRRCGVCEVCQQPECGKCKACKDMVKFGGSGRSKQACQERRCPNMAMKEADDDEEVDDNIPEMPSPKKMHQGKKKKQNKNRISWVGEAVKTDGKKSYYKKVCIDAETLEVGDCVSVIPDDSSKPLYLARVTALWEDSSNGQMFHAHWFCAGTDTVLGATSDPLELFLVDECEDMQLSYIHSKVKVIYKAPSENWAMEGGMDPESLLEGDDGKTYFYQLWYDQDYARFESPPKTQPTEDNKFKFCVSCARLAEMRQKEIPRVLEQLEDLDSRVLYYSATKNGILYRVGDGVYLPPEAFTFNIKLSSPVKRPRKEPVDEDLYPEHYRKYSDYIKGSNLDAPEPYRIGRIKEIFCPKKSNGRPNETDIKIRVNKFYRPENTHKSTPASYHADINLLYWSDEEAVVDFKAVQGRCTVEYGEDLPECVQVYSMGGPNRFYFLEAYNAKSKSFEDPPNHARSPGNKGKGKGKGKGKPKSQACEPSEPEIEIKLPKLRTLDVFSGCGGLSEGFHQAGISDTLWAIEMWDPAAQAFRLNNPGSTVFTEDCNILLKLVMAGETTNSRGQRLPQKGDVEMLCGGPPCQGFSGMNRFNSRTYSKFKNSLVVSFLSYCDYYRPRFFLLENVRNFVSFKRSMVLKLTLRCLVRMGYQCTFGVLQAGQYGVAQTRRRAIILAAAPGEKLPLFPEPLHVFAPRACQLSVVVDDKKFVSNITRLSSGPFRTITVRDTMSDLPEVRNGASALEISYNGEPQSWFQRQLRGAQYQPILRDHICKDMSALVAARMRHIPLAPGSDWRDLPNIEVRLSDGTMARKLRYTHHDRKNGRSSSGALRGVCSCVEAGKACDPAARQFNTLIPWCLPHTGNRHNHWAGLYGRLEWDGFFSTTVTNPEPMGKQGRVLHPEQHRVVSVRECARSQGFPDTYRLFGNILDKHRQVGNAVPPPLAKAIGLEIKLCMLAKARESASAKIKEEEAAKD
- assay-remarks: Inhibition of human recombinant DNMT1 expressed in Sf9 cells assessed as remaining activity at 2 mM after 3 hrs by scintillation counting in presence of [3H]S-adenosyl methionine
Calls of active or inactive are those of the source. The rule behind the calls is not given here.
measurement-type: Activity

In [3]: df
Out[3]:
                                    compound  recorded_measurement
 0  CN1CC2ON=C(c3ccc([N+](=O)[O-])cc3)C2C1 (stereo not drawn)                 34.9%
 1  Nc1ncnc2c1ncn2[C@@H]1O[C@H](CSCC[C@H](N)C(=O)O)[C@@H](O)[C@H]1O                  0.5%
 2  CN1CC2ON=C(Cc3ccc(N)cc3)C2C1 (stereo not drawn)                  3.3%
 3  CN1CC2ON=C(Cc3ccccc3)C2C1 (stereo not drawn)                   84%
 4                CCN(CC)CCOC(=O)c1ccc(N)cc1              inactive
 5  CN(C)CC1CC(Cc2ccccc2)=NO1 (stereo not drawn)                 17.1%
 6  COc1ccc(CC2=NOC(CN(C)C)C2)cc1 (stereo not drawn)              inactive
 7  CN1CC2ON=C(Cc3ccc([N+](=O)[O-])cc3)C2C1 (stereo not drawn)                  3.8%
 8  CN(C)CC1CC(c2ccc(N)cc2)=NO1 (stereo not drawn)                 20.2%
 9  COc1ccc(C2=NOC3CN(C)CC23)cc1 (stereo not drawn)                 95.6%
10  CN1CC2ON=C(c3ccc(N)cc3)C2C1 (stereo not drawn)                  5.1%
11  CN(C)CC1CC(c2ccc(C(=O)O)cc2)=NO1 (stereo not drawn)                   23%
12  CN1CC2ON=C(c3ccccc3)C2C1 (stereo not drawn)              inactive
13  CN(C)CC1CC(c2ccc([N+](=O)[O-])cc2)=NO1 (stereo not drawn)                  0.3%
14  Cc1ccc(S(=O)(=O)Oc2ccc(C3=NOC(CN(C)C)C3)cc2)cc1 (stereo not drawn)                 90.6%
15  COc1ccc(CC2=NOC3CN(C)CC23)cc1 (stereo not drawn)                  1.7%
16  CN(C)CC1CC(c2ccccc2)=NO1 (stereo not drawn)              inactive
17  Cc1ccc(S(=O)(=O)Oc2ccc(C3=NOC4CN(C)CC34)cc2)cc1 (stereo not drawn)                 18.6%

* * *

- measured-target: DNA (cytosine-5)-methyltransferase 1 (Homo sapiens, UniProt P26358)
- assay-remarks: Inhibition of human recombinant DNMT1 expressed in Sf9 cells assessed as remaining activity at 2 mM after 3 hrs by scintillation counting in presence of [3H]S-adenosyl methionine
Active and inactive are the calls of the source. The rule behind the calls is not given here.
measurement-type: Activity

>>> df
                                   compound                           measured_target  recorded_measurement
0  CN(C)CC1CC(Cc2ccc([N+](=O)[O-])cc2)=NO1 (configuration not stated)  DNA (cytosine-5)-methyltransferase 1 (Homo sapiens, UniProt P26358)                 14.8%
1  O=C(O)[C@H](Cc1c[nH]c2ccccc12)N1C(=O)c2ccccc2C1=O  DNA (cytosine-5)-methyltransferase 1 (Homo sapiens, UniProt P26358)              inactive
2  CN(C)CC1CC(Cc2ccc(N)cc2)=NO1 (configuration not stated)  DNA (cytosine-5)-methyltransferase 1 (Homo sapiens, UniProt P26358)                 28.3%
3  COc1ccc(C2=NOC(CN(C)C)C2)cc1 (configuration not stated)  DNA (cytosine-5)-methyltransferase 1 (Homo sapiens, UniProt P26358)                  3.3%
4  CN1CC2ON=C(c3ccc(C(=O)O)cc3)C2C1 (configuration not stated)  DNA (cytosine-5)-methyltransferase 1 (Homo sapiens, UniProt P26358)              inactive
5  CN(C)CC1CC(c2ccc(O)cc2)=NO1 (configuration not stated)  DNA (cytosine-5)-methyltransferase 1 (Homo sapiens, UniProt P26358)                   88%
6  CN1CC2ON=C(c3ccc(O)cc3)C2C1 (configuration not stated)  DNA (cytosine-5)-methyltransferase 1 (Homo sapiens, UniProt P26358)              inactive
